- Tested on: SW 900
- Procedure Summary: relative viability (nuclei count vs DMSO), 5 days (fraction); higher = more cells survive
- Measurement Parameters: first compound 0.03162 µM
Mark each entry True if its relative viability sits below 0.5, and False for all others.

{"columns": ["Molecule", "Class Label"],
 "data": [
  ["O=c1cc(N2CCOCC2)oc2c(-c3cccc4c3sc3ccccc34)cccc12 + Nc1ncn([C@H]2C[C@H](O)[C@@H](CO)O2)c(=O)n1 [Decitabine] (partner 2 µM)", "True"],
  ["O=c1cc(N2CCOCC2)oc2c(-c3cccc4c3sc3ccccc34)cccc12 + CC(=O)Nc1cccc(-n2c(=O)n(C3CC3)c(=O)c3c(Nc4ccc(I)cc4F)n(C)c(=O)c(C)c32)c1 [Trametinib] (partner 0.02 µM)", "False"],
  ["CCN(CC)CCCCNc1ncc2cc(-c3cc(OC)cc(OC)c3)c(NC(=O)NC(C)(C)C)nc2n1 + COc1cc2c(Oc3ccc(NC(=O)C4(C(=O)Nc5ccc(F)cc5)CC4)cc3F)ccnc2cc1OCCCN1CCOCC1 [Foretinib] (partner 0.25 µM)", "False"],
  ["O=c1cc(N2CCOCC2)oc2c(-c3cccc4c3sc3ccccc34)cccc12 + Nc1nc2[nH]cc(CCc3ccc(C(=O)N[C@@H](CCC(=O)O)C(=O)O)cc3)c2c(=O)[nH]1 [Pemetrexed] (partner 0.2 µM)", "True"],
  ["CCN(CC)CCCCNc1ncc2cc(-c3cc(OC)cc(OC)c3)c(NC(=O)NC(C)(C)C)nc2n1 + CCNC(=O)c1noc(-c2cc(C(C)C)c(O)cc2O)c1-c1ccc(CN2CCOCC2)cc1 [Luminespib] (partner 0.01 µM)", "True"],
  ["O=c1cc(N2CCOCC2)oc2c(-c3cccc4c3sc3ccccc34)cccc12 + O=C(c1cc(Cc2n[nH]c(=O)c3ccccc23)ccc1F)N1CCN(C(=O)C2CC2)CC1 [Olaparib] (partner 8 µM)", "False"],
  ["CCN(CC)CCCCNc1ncc2cc(-c3cc(OC)cc(OC)c3)c(NC(=O)NC(C)(C)C)nc2n1 + Cc1nc(Nc2ncc(C(=O)Nc3c(C)cccc3Cl)s2)cc(N2CCN(CCO)CC2)n1 [Dasatinib] (partner 0.075 µM)", "False"],
  ["CCN(CC)CCCCNc1ncc2cc(-c3cc(OC)cc(OC)c3)c(NC(=O)NC(C)(C)C)nc2n1 + CC(=O)c1c(C)c2cnc(Nc3ccc(N4CCNCC4)cn3)nc2n(C2CCCC2)c1=O [Palbociclib] (partner 0.5 µM)", "False"],
  ["O=c1cc(N2CCOCC2)oc2c(-c3cccc4c3sc3ccccc34)cccc12 + NC(=O)Nc1cc(-c2cccc(F)c2)sc1C(=O)N[C@H]1CCCNC1 [AZD7762] (partner 0.2 µM)", "False"]
]}

# credit: the supplement of paper PMC10307832
